Target: HLA-A*02:11
Assay: IEDB peptide-MHC binding, purified MHC/direct/fluorescence; filed as Kd, often an IC50 or EC50 that approximates it; bounds were set here for any values at or beyond the usual limits of such assays
Settings: source organism: Rio Mearim virus
pKd: −log10 of the molar value.
PROPERTY_MEASURED: pKd

For reference, reported pKd for DWMERIEDF stands at ≤ 4.70

* * *

Target: HLA-B*15:01
Assay: IEDB peptide-MHC binding, purified MHC/competitive/fluorescence; filed as Kd, often an IC50 or EC50 that approximates it; bounds were set here for any values at or beyond the usual limits of such assays
Settings: source organism: Campylobacter jejuni subsp. jejuni NCTC 11168 = ATCC 700819
pKd: −log10 of the molar value.
PROPERTY_MEASURED: pKd

For reference, reported pKd for FTFERSKIK stands at ≤ 4.70

* * *

Target: HLA-A*26:01
Assay: IEDB peptide-MHC binding, purified MHC/competitive/fluorescence; filed as Kd, often an IC50 or EC50 that approximates it; bounds were set here for any values at or beyond the usual limits of such assays
Conditions: source organism: Campylobacter jejuni subsp. jejuni NCTC 11168 = ATCC 700819
PROPERTY_MEASURED: Kd

For reference, reported Kd for FTFERSKIK stands at ≥ 20 µM

* * *

Molecular target: HLA-B*44:03
Experiment: IEDB peptide-MHC binding, purified MHC/competitive/radioactivity; filed as Kd, often an IC50 or EC50 that approximates it; bounds were set here for any values at or beyond the usual limits of such assays
Conditions: source organism: Mammarenavirus lassaense
PROPERTY_MEASURED: pKd
Answers are plain numbers, as −log10 of the molar value.

Assay HLA-B*44:03, sample KEAYCQEFSL , pKd read: 4.79

* * *

Target: HLA-A*02:01
Assay: IEDB peptide-MHC binding, purified MHC/competitive/fluorescence; filed as Kd, often an IC50 or EC50 that approximates it; bounds were set here for any values at or beyond the usual limits of such assays
Settings: source organism: Shigella boydii CDC 3083-94
PROPERTY_MEASURED: Kd (µM)
Give bare numbers, in µM.

For reference, reported Kd for QEPGIFCAI stands at 0.116

* * *

Target: HLA-B*27:05
Test: IEDB peptide-MHC binding, purified MHC/direct/fluorescence; filed as Kd, often an IC50 or EC50 that approximates it; bounds were set here for any values at or beyond the usual limits of such assays
Settings: source organism: Bacillus anthracis
pKd: −log10 of the molar value.
PROPERTY_MEASURED: pKd

For reference, reported pKd for DTVLFNAGL stands at ≤ 4.70

* * *

Target: HLA-B*40:01
Experiment: IEDB peptide-MHC binding, purified MHC/competitive/radioactivity; filed as Kd, often an IC50 or EC50 that approximates it; bounds were set here for any values at or beyond the usual limits of such assays
Details: source organism: Mammarenavirus brazilense
PROPERTY_MEASURED: Kd (nM)
One number for each entry, in nM.

For reference, reported Kd for AENDIVEAL stands at 5.87

* * *

Molecular target: HLA-B*46:01
Assay: IEDB peptide-MHC binding, purified MHC/competitive/fluorescence; filed as Kd, often an IC50 or EC50 that approximates it; bounds were set here for any values at or beyond the usual limits of such assays
Conditions: source organism: Vibrio cholerae V52
PROPERTY_MEASURED: Kd

For reference, reported Kd for IGYRLGMGK stands at ≥ 20 µM
